# Tested on: P388 leukemia ip, CD2F1 mice, survival T/C
# Method Notes: NCI In Vivo Anticancer Drug Screen. Data for tumor model P388 Leukemia (intraperitoneal) in CD2F1 (CDF1) mice
# Test Context: endpoint: median survival time; dose: 50.0 mg/kg/injection; schedule: Q01DX005 (ip); vehicle: saline with Tween-80; higher = longer survival
Inconclusive results and toxic doses are left out.
For each of the compounds below, state its T/C.

Problem: Bench note: what T/C did O=C(N/N=C/c1ccccc1O)c1ccccc1O show?
Solution: 100 % of control

Problem: Please look up its T/C: Cc1nc2ccccc2nc1NNc1ccccc1
Solution: 90 % of control

Problem: T/C for O=C1C=CC2C=CC1C=C2 ?
Solution: 104 % of control

Problem: Query (compound): COc1ccc(C2OC(=O)CN2C(=O)c2ccccc2)cc1 (configuration not stated) ; field requested: T/C
Solution: 107 % of control

Problem: I have this compound here, N#Cc1c(C(=O)NN)cc(-c2cccc3ccccc23)[nH]c1=O , and I need its recorded T/C.
Solution: 107 % of control

Problem: Consider the compound shown here: Cc1ccc(C)c(C[n+]2ccccc2C2(C)OCCO2)c1 What is its recorded T/C?
Solution: 101 % of control

Problem: Quick check: T/C of CCN(CC)C1CS(=O)(=O)OC(c2ccccc2)=C1C (configuration not stated) ?
Solution: 100 % of control

Problem: Suppose we examine the compound O=c1sc2ccccc2nc1NNc1ccccc1 ; what T/C value has been reported?
Solution: 90 % of control

Problem: Which T/C value belongs to CC1(C)OC(C(F)(F)F)(C(F)(F)F)c2cc(C(C)(C)C)cc(C(O)(C(F)(F)F)C(F)(F)F)c2S1 ?
Solution: 106 % of control

Problem: Given O=C1CC2c3ccccc3C1c1ccccc12 , state its recorded T/C.
Solution: 95 % of control

Problem: What value of measured T/C is listed for Cc1cccc(NC(=S)NNc2nnc(-c3ccccc3)c(-c3ccccc3)n2)c1 ?
Solution: 90 % of control

Problem: Fill in the blank: the reported T/C of CSC1=Nc2cc3c(cc2C(=O)N2C[C@H](O)CC12)OCO3 (some centres not stated) is ____.
Solution: 108 % of control

Source: PubChem BioAssay AID330
